TESTED_SYSTEM: T1, VGAGIGFPAYDG peptide substrate
T1 chain: VGAGIGFPAYDG
PARAMETER_MEASURED: Linear ion count (%) (M + H = 717)
Answers are plain numbers, in %.

Consider the protein PatGmac triple mutant R589D K594D K598D (protein) GEDEIESAGVSASEVESSATKQKVALHPHDLDERIPGLADLHNQTLGDPQITIVIIDGDPDYTLSCFEGAEVSKVFPYWHEPAEPITPEDYAAFQSIDDQGLDGKEDEEALEAVIPDTKDRIVLNDHACHVTSTIVGQEHSPVFGIAPNCRVINMPQDAVIRGNYDDVMSPLNLARAIDLALELGANIIHCAFCRPTQTSEGEEILVQAIKKCQDNNVLIVSPTGNNSNESWCLPAVLPGTLAVGAAKVDGTPCHFSNWGGNNTKEGILAPGEEILGAQPCTEEPVRLTGTSMAAPVMTGISALLMSLQVQQGKPVDAEAVRTALLKTAIPCDPEVVEEPERCLRGFVNIPGAMKVLFGQ and give its measured Linear ion count (%) (M + H = 717).
6
